inhibition values, listed per item
assay: inhibition of NOD2-driven NF-kB reporter – cell-based, luminescence, uHTS, HEK293 (AID 1566); details: HEK293 NOD2/NF-kB luciferase reporter, at 4 µM, hits give high values
In all, about 290,000 compounds went through this assay and about 1,800 (0.62%) were called active. Shown is part of a subset that was picked to be rich in actives.

Solved entries (count: 5):
molecule=COc1ccc(C(=O)Nc2sc3c(c2C(=O)O)CC(C)(C)OC3)cc1 measured_property=inhibition measured="8.8% (inactive)"
molecule="Cc1cc(C(=O)COC(=O)c2ccccc2NCCO)c(C)n1CC1CCCO1 (configuration not stated)" measured_property=inhibition measured="-4.6% (inactive)"
molecule=O=C(COc1ccc(Cl)cc1Cl)Nc1ccccn1 measured_property=inhibition measured="62.1% (active)"
molecule=O=C(Nc1ccc(N2CCOCC2)cc1)c1cnsn1 measured_property=inhibition measured="52.4% (active)"
molecule=O=C1CCCN1CCC1CCN(C(=S)Nc2ccc(F)cc2)CC1 measured_property=inhibition measured="1.1% (inactive)"

Ask: Consider the molecule CC1=C([N+](=O)[O-])C(c2ccccc2Cl)NC(=O)N1C (configuration not stated) and give its measured inhibition.
Result: 14.3% (inactive)

Ask: Consider the molecule CCOc1cc(/C=C2\NC(=S)N(C)C2=O)ccc1OCc1ccc(C(=O)O)cc1 and give its measured inhibition.
Result: -3% (inactive)

----------
experiment: inhibition of NOD2-driven NF-kB reporter – cell-based, luminescence, uHTS, HEK293 (AID 1566); details: HEK293 NOD2/NF-kB luciferase reporter, at 4 µM, hits give high values
Screen size: about 290,000 compounds; about 1,800 (0.62%) were called active. For the sample, actives were picked, then their nearest neighbours and some compounds at random.
inhibition values, listed per item
Hi! Could you send only the number? It should be in %, unit omitted.

Solved entries (count: 2):
molecule=Cn1c(Sc2ccccc2Cl)c(C=O)c2ccccc21 measure_unit=% measured=36.9
molecule="CN(C)C(=O)C(OC(=O)c1ccc2ccccc2n1)c1ccccc1 (centres undefined)" measure_unit=% measured=-9.4

Ask: Consider the molecule COc1ccccc1N1C(=O)c2ccc(C(=O)Nc3ccccc3O)cc2C1=O and give its measured inhibition.
Result: -3.6

Ask: Consider the molecule c1cc[n+](CCC[n+]2ccccc2)cc1 and give its measured inhibition.
Result: 11.7
